Assay: Primary qHTS to identify inhibitors of SARS-CoV-2 cell entry (AID 1645846); also: nearly all actives have a fitted effect of over 45% in size
Settings: SARS-CoV-2 pseudovirus cell entry assay, luminescence
Results filed as inconclusive are left out. Calls of active or inactive are those of the source. Calls follow the shape of the full dose curve.
// one of active, inactive, no free text

A selection of reference data follows.
compound	discrete.label
CCCc1cc(C(=O)N[C@H](Cc2ccc(-c3cccc(OC(F)(F)F)c3)nc2)C(=O)N[C@@H]2CCNC2)sc1C	active
CN1CC[C@H](CN2c3ccccc3Sc3ccccc32)C1	active
CCC[C@H](N[C@H]1CCc2cc(F)cc(F)c2C1)C(=O)Nc1cn(C(C)(C)CNCC(C)(C)C)cn1	active

Query :: What was the test verdict on CC(=O)OCC(=O)[C@@]1(O)[C@H](C)C[C@H]2[C@@H]3C[C@H](F)C4=CC(=O)C=C[C@]4(C)[C@@]3(F)[C@@H](O)C[C@@]21C ?
Result :: inactive

Query :: # fetch the recorded call for NC(=O)/C(=C/n1cnc(-c2cc(C(F)(F)F)cc(C(F)(F)F)c2)n1)c1cncnc1 here
Result :: active

Query :: Please state the recorded outcome for this compound: C[C@@H]1CCN(C(=O)N2CCCC2)C[C@@H]1N(C)c1ncnc2[nH]ccc12
Result :: inactive

Query :: Name the outcome recorded for CN(C)C1CCN(C(=O)c2ccc(NC(=O)Nc3ccc(-c4nc(N5CCOCC5)nc(N5CCOCC5)n4)cc3)cc2)CC1 in the assay.
Result :: active

Query :: // param item: Clc1cccc(-c2ccc(-c3nnc(CCCc4ccc5cccnc5n4)o3)cc2)c1 ; yields the recorded call
Result :: inactive

Query :: Recorded test call requested for C[C@H](Oc1cc(-c2cnn(C3CCNCC3)c2)cnc1N)c1c(Cl)ccc(F)c1Cl
Result :: active

Query :: Fill in: this test's call for N#Cc1cc2cc(CN3CCC(Nc4ncnc5sc(CC(F)(F)F)cc45)CC3)c(O)cc2n1Cc1cn[nH]c1 is ___
Result :: active

Query :: What was the test verdict on CC1(N)CCN(c2cccnc2NC(=O)c2nc(-c3ncccc3C(F)(F)F)cnc2N)CC1 ?
Result :: active
